test system: Botrtyis cinerea (Bc); test: Growth inhibition assay of fungal pathogens; format: cell-based; settings: 48 h, Table 4a, read-out: Concentration at 90% Inhibition Bc
Measurement label: IC90 (µg/mL)

[[record]]
mol_smiles = "COc1ccc(F)cc1[C@H](Cn1c(=O)n(C(C)(C)C(=O)NC(C)C)c(=O)c2c(C)c(-n3cccn3)sc21)OCC(C)(C)O"
measurement_units = "µg/mL"
rel = "="
value_reported = 2

[[record]]
mol_smiles = "COc1ccc(F)cc1[C@H](Cn1c(=O)n(C(C)(C)C(=O)N2CCCCC2)c(=O)c2c(C)c(-n3cccn3)sc21)OC1CCOCC1"
measurement_units = "µg/mL"
rel = "="
value_reported = 2

[[record]]
mol_smiles = "COc1ccc(F)cc1[C@H](Cn1c(=O)n(C(C)(C)C(=O)N2CCCC2)c(=O)c2c(C)c(-n3cccn3)sc21)O[C@H]1CC[C@@H](O)CC1"
measurement_units = "µg/mL"
rel = "="
value_reported = 2

[[record]]
mol_smiles = "COc1ccc(F)cc1[C@H](Cn1c(=O)n(CC(=O)N2CCCC2)c(=O)c2c(C)c(-n3cccn3)sc21)OC(C)C"
measurement_units = "µg/mL"
rel = "="
value_reported = 2

[[record]]
mol_smiles = "COc1ccc(F)cc1[C@H](Cn1c(=O)n(C(C)(C)C(=O)NC(C)C)c(=O)c2c(C)c(-n3cccn3)sc21)OC[C@@H](C)O"
measurement_units = "µg/mL"
rel = "="
value_reported = 2

[[record]]
mol_smiles = "COc1ccc(F)cc1[C@H](Cn1c(=O)n(C(C)(C)C(N)=O)c(=O)c2c(C)c(-n3cccn3)sc21)O[C@H]1CC[C@@H](O)CC1"
measurement_units = "µg/mL"
rel = "="
value_reported = 2

[[record]]
mol_smiles = "COc1ccccc1[C@H](Cn1c(=O)n(C(C)(C)C(=O)N2CCCCC2)c(=O)c2c(C)c(-n3cccn3)sc21)OC1CCOCC1"
measurement_units = "µg/mL"
rel = "="
value_reported = 2

[[record]]
mol_smiles = "COc1ccc(F)cc1[C@H](Cn1c(=O)n(C(C)(C)C(=O)N2CCCC2)c(=O)c2c(C)c(-n3cccn3)sc21)OC(C)C"
measurement_units = "µg/mL"
rel = "="
value_reported = 0.4

[[record]]
mol_smiles = "CCO[C@@H](Cn1c(=O)n(C(C)(C)C(=O)N2CCCC2)c(=O)c2c(C)c(-n3cccn3)sc21)c1cc(F)ccc1OC"
measurement_units = "µg/mL"
rel = "="
value_reported = 0.4

[[record]]
mol_smiles = "COc1ccc(F)cc1[C@H](Cn1c(=O)n(C(C)(C)C(=O)N2CC=CC2)c(=O)c2c(C)c(-n3cccn3)sc21)OC1CCOCC1"
measurement_units = "µg/mL"
rel = ">"
value_reported = 50

[[record]]
mol_smiles = "COc1ccc(F)cc1[C@H](Cn1c(=O)n(C(C)(C)C(=O)N2CCCC2)c(=O)c2c(C)c(-n3cccn3)sc21)OCCO"
measurement_units = "µg/mL"
rel = ">"
value_reported = 50

[[record]]
mol_smiles = "COc1ccccc1[C@H](Cn1c(=O)n(C(C)(C)C(=O)N2CCCC2)c(=O)c2c(C)c(-n3cccn3)sc21)OC1CCOCC1"
measurement_units = "µg/mL"
rel = ">"
value_reported = 50

